target: PlzD; construct: His-tagged PlzD (aot11_00285, strain ATCC27562), expressed in E. coli BL21(DE3); test: micro-equilibrium dialysis with UV absorbance at […] nm, purified protein
quantityKind: pKd
Please express pKd as -log10 of the molar concentration.

Note down pKd recorded for Nc1nc2c(ncn2[C@@H]2O[C@@H]3COP(=O)(O)O[C@H]4[C@@H](O)[C@H](n5cnc6c(=O)[nH]c(N)nc65)O[C@@H]4COP(=O)(O)O[C@H]3[C@H]2O)c(=O)[nH]1 [c-di-GMP]
5.41
